Biological target: T1, canine CD20 on cells (HEK293, MDCK II, CLBL-1 or native B cells) (canine, UniProt Q3C2E2 1-297)
T1 construct: also called dCD20; cCD20
T1 chain: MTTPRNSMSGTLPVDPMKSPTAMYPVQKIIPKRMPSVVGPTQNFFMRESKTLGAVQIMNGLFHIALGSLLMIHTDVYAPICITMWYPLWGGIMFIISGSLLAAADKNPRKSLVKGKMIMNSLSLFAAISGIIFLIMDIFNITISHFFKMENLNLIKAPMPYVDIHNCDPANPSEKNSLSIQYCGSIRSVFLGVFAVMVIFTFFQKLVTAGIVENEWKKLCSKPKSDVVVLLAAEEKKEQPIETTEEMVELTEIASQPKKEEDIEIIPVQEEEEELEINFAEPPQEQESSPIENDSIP
Experiment: flow cytometry, canine CD20 HEK293 cells, 10 µg/ml, FITC anti-canine IgG

{"binder": "PMX256 (monospecific anti-canine CD20, canine IgG-B, lambda C5) (antibody, V domains shown) VH: EVQLVESGGDLVKPGGSLRLSCVASGFTFSSYHMSWVRQAPGKGLQWVAYINSGGSSTSYADAVKGRFTISRDNAKNTLYFQMNSLRAEDTAVYYCTTFDSWGQGTLVTVSS VL: SYVLTQLPSKNVTLKQPAHITCGGDNIGSKSVHWYQQKLGQAPVLIIYYDSSRPTGIPERFSGANSGNTATLTISGALAEDEADYYCQVWDSSANVFGGGTHLTVLG", "binding result": "binds"}
{"binder": "PMX242 (monospecific anti-canine CD20, canine IgG-B, lambda C5) (antibody, V domains shown) VH: EIQLVESGGDLVKPGGSLRLSCVASGFTFSRYHMSWVRQAPGKGLQWVAYINTGGSNTNYADAVKGRFTISRDNAKNTLYLQMNSLRAEDTAVYYCTTLDSWGQGTLVTVSS VL: SYVLTQLPFKNVTLKQPAHITCGGDNIGSKSVHWYQQKLGQAPVLIIYYDSRRPTGIPERFSGANSGNTATLTISGALAEDEADYYCQVWDSSVNVFGGGTHLTVLG", "binding result": "binds"}
